These measurements were taken from patent US6605424B1.

test system: adenylyl cyclase in membranes of A431 cells; experiment: cells; settings: Homo sapiens, A-431, read-out: EC50, adenylyl cyclase stimulation, desensitized permeabilized cells
Quantity: EC50 (nM)
# unit: nM | format: bare number

Form field: EC50 recorded for CC(C)NC[C@H](O)c1ccc(O)c(O)c1 [isoproterenol, (−)-isoproterenol] with adenylyl cyclase in membranes of A431 cells (enter value) 190

----------
Target: βAR kinase (Bos taurus, UniProt P21146)
Construct: βAR kinase was purified from bovine cerebral cortex; from tissue; host or cells: bovine cerebral cortex
Sequence (P21146 1-689): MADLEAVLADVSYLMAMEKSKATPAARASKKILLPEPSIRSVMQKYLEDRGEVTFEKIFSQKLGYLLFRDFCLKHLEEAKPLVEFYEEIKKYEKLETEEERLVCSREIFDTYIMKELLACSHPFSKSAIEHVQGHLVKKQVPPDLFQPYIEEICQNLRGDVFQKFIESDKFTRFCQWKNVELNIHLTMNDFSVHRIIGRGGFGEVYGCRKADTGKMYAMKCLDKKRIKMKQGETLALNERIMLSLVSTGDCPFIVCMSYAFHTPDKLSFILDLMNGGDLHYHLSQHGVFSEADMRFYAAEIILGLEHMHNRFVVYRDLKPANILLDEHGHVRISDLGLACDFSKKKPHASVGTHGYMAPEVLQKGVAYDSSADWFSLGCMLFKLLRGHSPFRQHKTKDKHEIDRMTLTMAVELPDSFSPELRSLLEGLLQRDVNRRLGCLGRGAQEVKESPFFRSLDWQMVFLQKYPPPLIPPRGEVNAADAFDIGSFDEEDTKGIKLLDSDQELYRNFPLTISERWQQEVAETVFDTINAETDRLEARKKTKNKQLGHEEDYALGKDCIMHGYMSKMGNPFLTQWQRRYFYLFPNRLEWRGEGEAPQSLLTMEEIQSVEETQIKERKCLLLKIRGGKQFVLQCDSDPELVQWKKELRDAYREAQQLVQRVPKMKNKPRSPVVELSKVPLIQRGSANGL
Experiment: Inhibition of β2AR phosphorylation by βAR kinase by synthetic peptides (Example III)
Assay type: biochemical, bovine
Conditions: β2AR as substrate; read-out: IC50 (μM), first intracellular loop peptides as inhibitors of βAR kinase
No end group written: not given here.
Checkbox rule: IC50 lower than 60 µM = rule met; IC50 not lower than 60 µM = rule not met.

For orientation, consider the following solved cases.
>  <Substance>
AIAKFERLQTVTNYF [β2AR-(57-71)]

>  <Assigned Class>
rule not met

$$$$
>  <Substance>
AIAKTPRLQTLTNLF [β1AR]

>  <Assigned Class>
rule not met

$$$$
>  <Substance>
AIAKFERAQTVTAYF [β2AR (57-71, L → A, N → A)]

>  <Assigned Class>
rule met

$$$$
>  <Substance>
VTVQHKKLRTPLNYI [Rhodopsin]

>  <Assigned Class>
rule not met

$$$$
>  <Substance>
AVFTSRALKAPQNLF [α2AR]

>  <Assigned Class>
rule not met

$$$$
>  <Substance>
KFERLQT [β2AR (60-66), KFERLQT]

>  <Assigned Class>
rule not met

$$$$

Given TAIAKFERLQTVTNYFITS [β2AR (56-74)] , is recorded IC50 strictly lower than 60 µM? rule met

Given AIAKFQRLQTVTNYF [β2AR (57-71, E → Q), AIAKFORLQTVTNYF] , is recorded IC50 strictly lower than 60 µM? rule not met
